System: corn
measurement-notes: Test C pre-/postemergence herbicide test
Type: in vivo, Zea mays
assay-context: Preemergence, 31 g ai/ha; scale 0 to 100, 0 is no effect and 100 is complete control
recorded-metric: Corn plant response rating
Form: value (number only, do not type unit).

Quick one: Corn plant response rating for O=C1NCC(c2ccc(C(F)(F)F)cc2)C1C(=O)Nc1ccccc1F (stereo not shown) [Compound 79] ? 0

Which Corn plant response rating value belongs to CN1CC(c2cccc(C(F)(F)F)c2)C(C(=O)Nc2cccc(F)c2F)C1=O (stereo not shown) ? 65

Can you look up the measured Corn plant response rating of O=C1NCC(c2ccc(C(F)(F)F)cc2)C1C(=O)Nc1ccccc1F (stereo not shown) [Compound 231] for me? 0

Entry O=C1NCC(c2cccc(OC(F)(F)F)c2)C1C(=O)Nc1ccccc1F (stereo not shown) has what Corn plant response rating? 15

====

System: velvetleaf
measurement-notes: Test A pre-/postemergence herbicide test
Type: in vivo, Abutilon theophrasti
assay-context: Postemergence, 500 g ai/ha; 0 to 100 scale (0 no effect, 100 complete control)
For each entry below, report its Plant response rating, Velvetleaf value.
Enter the number alone.

# value lookup — system velvetleaf, readout Plant response rating, Velvetleaf, item O=C1NCC(c2ccc3c(c2)OC(F)(F)O3)C1C(=O)Nc1ccccc1C(F)(F)F (racemic) [Compound 75] 20

So what Plant response rating, Velvetleaf did CC1(C(=O)Nc2cccc(F)c2F)C(=O)NCC1c1ccc(F)c(Cl)c1 (stereo not drawn) [Compound 61] get with velvetleaf? 0

Lookup: Plant response rating, Velvetleaf / velvetleaf / O=C1NCC(c2ccccc2Cl)C1C(=O)Nc1ccccc1F (racemic) [Compound 88] 0

====

System: morningglory
measurement-notes: Test C pre-/postemergence herbicide test
Format: in vivo, Ipomoea coccinea
assay-context: Preemergence, 125 g ai/ha; scale 0 to 100 (0 no effect, 100 complete control)
recorded-metric: Plant response rating, Morningglory
Just the number, please.

Please report the recorded Plant response rating, Morningglory for O=C1NCC(c2cc(F)c(F)c(F)c2)C1C(=O)Nc1cccc(F)c1F (stereo not drawn) . 15

Item O=C1NCC(c2ccc(F)c(Cl)c2)C1C(=O)Nc1ccccc1F (stereo not drawn) has what recorded Plant response rating, Morningglory? 10

Plant response rating, Morningglory for O=C1NCC(c2cccc(OC(F)(F)F)c2)C1C(=O)Nc1ccccc1F (stereo not drawn) ? 25

====

Test system: blackgrass
measurement-notes: Test A postemergence herbicide test
Type: in vivo, Alopecurus myosuroides
assay-context: 125 g ai/ha, 0 to 100 scale, 0 is no effect, 100 is complete control
Excerpt: At the same time, plants selected from these crop and weed species and also blackgrass (Alopecurus myosuroides), and galium (catchweed bedstraw, Galium aparine) were planted in pots containing the same blend of loam soil and sand and treated with postemergence applications of test chemicals formulated in the same manner. Plants ranged in height from 2 to 10 cm and were in the one- to two-leaf stage for the postemergence treatment. […]
recorded-metric: Plant response rating, Blackgrass
In your answer, state the number alone without any accompanying words.

Given the compound COc1ccc(C2CNC(=O)C2C(=O)Nc2ccccc2F)cc1C(F)(F)F (racemic) [Compound 209] , what is its reported Plant response rating, Blackgrass? 0

What measured Plant response rating, Blackgrass goes with O=C1NCC(c2cc(F)cc(F)c2)C1C(=O)Nc1ccccc1Cl (racemic) [Compound 280] ? 0

Fill in: Plant response rating, Blackgrass of O=C1NCC(c2ccc(Cl)c(Cl)c2)C1C(=O)Nc1ccccc1Cl (racemic) [Compound 273] is ___ 0

Please give the measured Plant response rating, Blackgrass for this compound: O=C1NCC(c2cccc(C(F)F)c2)C1C(=O)Nc1ccccc1C(F)(F)F (racemic) [Compound 212] 40

Quick one: Plant response rating, Blackgrass of O=C1NCC(c2ccc(F)cc2)C1C(=O)Nc1ccccc1F (stereo not drawn) [Compound 239] ? 20

Field request: Plant response rating, Blackgrass | item: O=C1NCC(c2ccc(C(F)(F)F)cc2)C1C(=O)Nc1ccccc1F (stereo not drawn) [Compound 231] 40

====

Tested on: corn
measurement-notes: Test A pre-/postemergence herbicide test
Assay type: in vivo, Zea mays
assay-context: Postemergence, 500 g ai/ha; 0 to 100 scale (0 no effect, 100 complete control)
Exercise: state measured Plant response rating, Corn for each of the compounds provided.
Please respond with just the number, no unit label.

Give its Plant response rating, Corn value. Item: O=C1NCC(c2cccc(OC(F)(F)F)c2)C1C(=O)Nc1ccccc1F (stereo not drawn) [Compound 69] 90

Item O=C1NCC(c2ccc(F)cc2)C1C(=O)Nc1ccccc1F (stereo not drawn) [Compound 239] has what recorded Plant response rating, Corn? 0

Recorded Plant response rating, Corn of COc1cccc(C2CNC(=O)C2C(=O)Nc2ccccc2F)c1 (racemic) [Compound 36] , please. 0

Can you look up the measured Plant response rating, Corn of O=C1NCC(c2ccc(C(F)(F)F)cc2F)C1C(=O)Nc1cccc(F)c1F (racemic) [Compound 260] for me? 0

Dear colleague, I am looking for the recorded Plant response rating, Corn of the following compound: O=C1NCC(c2ccccc2)C1C(=O)Nc1ccccc1Cl (racemic) [Compound 83] 0

Return reported Plant response rating, Corn; argument: O=C1NCC(c2cccc(Br)c2)C1C(=O)Nc1ccc(F)c(F)c1F (stereo not drawn) [Compound 310] 50

====

Tested on: ducksalad
measurement-notes: Test B flooded paddy test
Format: in vivo, Heteranthera limosa
assay-context: 250 g ai/ha, Flood; scale of 0 to 100 where 0 is no effect and 100 is complete control
Procedure: Plant species in the flooded paddy test selected from rice (Oryza sativa), sedge, umbrella (small-flower umbrella sedge, Cyperus difformis), ducksalad (Heteranthera limosa), and barnyardgrass (Echinochloa crus-galli) were grown to the 2-leaf stage for testing. […] Treated plants and controls were maintained in a greenhouse for 13 to 15 days, after which time all species were compared to controls and visually evaluated. […]
recorded-metric: Plant response rating, Ducksalad

Record lookup: for ducksalad, what Plant response rating, Ducksalad belongs to O=C1NCC(c2cc(F)c(F)c(F)c2)C1C(=O)Nc1cccc([N+](=O)[O-])c1 (stereo not drawn) [Compound 49] ? 70

Return Plant response rating, Ducksalad measured with ducksalad given this compound: COc1ccc(C2CNC(=O)C2C(=O)Nc2cccc(F)c2F)cc1F (racemic) [Compound 198] 70

Observed Plant response rating, Ducksalad on ducksalad for O=C1NCC(c2cccc(Cl)c2)C1C(=O)Nc1ccccc1F (racemic) [Compound 89] , please. 70

====

Tested on: ryegrass, Italian
measurement-notes: Test C pre-/postemergence herbicide test
Assay type: in vivo, Lolium multiflorum
assay-context: Preemergence, 31 g ai/ha; scale 0 to 100, 0 is no effect and 100 is complete control
Please respond with reported Ryegrass, Italian plant response rating for every item in the list.
# print the numeric value only

Query (compound): CN1CC(c2cccc(C(F)(F)F)c2)C(C(=O)Nc2cccc(F)c2F)C1=O (stereo not shown) ; field requested: Ryegrass, Italian plant response rating 15

Reported Ryegrass, Italian plant response rating for O=C1NCC(c2cccc(OC(F)F)c2)C1C(=O)Nc1cccc(F)c1F (stereo not shown) : what is it? 0

I have this compound here, O=C1NCC(c2ccc(Cl)cc2)C1C(=O)Nc1cccc(F)c1F (stereo not shown) , and I need its recorded Ryegrass, Italian plant response rating. 0

Fill in the blank: the reported Ryegrass, Italian plant response rating of CN1CC(c2ccc(F)c(F)c2)C(C(=O)Nc2cccc(F)c2F)C1=O (stereo not shown) is ____. 30

====

Tested on: corn
measurement-notes: Test A pre-/postemergence herbicide test
Type: in vivo, Zea mays
assay-context: Postemergence, 500 g ai/ha
recorded-metric: Corn plant response rating (0 to 100 scale, 0 is no effect, 100 is complete control)
Please give only the number in your answer, with no unit.

May I ask what Corn plant response rating (0 to 100 scale, 0 is no effect, 100 is complete control) has been recorded for O=C1NCC(c2ccc(C(F)(F)F)cc2)C1C(=O)Nc1cccc(F)c1F (racemic) [Compound 202] ? 90

Would you mind telling me what Corn plant response rating (0 to 100 scale, 0 is no effect, 100 is complete control) value was observed for O=C1NCC(c2cccc(C(F)(F)F)c2)C1C(=O)Nc1ccccc1Br (racemic) [Compound 190] ? 40

Which measured Corn plant response rating (0 to 100 scale, 0 is no effect, 100 is complete control) value corresponds to Cc1ccc(NC(=O)C2C(=O)NCC2c2cccc(C(F)(F)F)c2)cc1C(F)(F)F (racemic) [Compound 186] ? 0

====

Test system: blackgrass
measurement-notes: Test C pre-/postemergence herbicide test
Format: in vivo, Alopecurus myosuroides
assay-context: Preemergence, 31 g ai/ha; scale 0 to 100, 0 is no effect and 100 is complete control
Kindly state Blackgrass plant response rating for each of the entries shown.
Answer as a number with no unit attached.

Param readout= Blackgrass plant response rating; system= blackgrass; entry= O=C1NCC(c2cccc(OC(F)F)c2)C1C(=O)Nc1ccccc1F (stereo not drawn) ; returns value. 0

Form field - read-out: Blackgrass plant response rating; system: blackgrass; submitted item: CN1CC(c2ccc(F)c(F)c2)C(C(=O)Nc2cccc(F)c2F)C1=O (stereo not drawn) 0

Report Blackgrass plant response rating for O=C1NCC(c2cccc(OC(F)F)c2)C1C(=O)Nc1cccc(F)c1F (stereo not drawn) tested on blackgrass. 0
